Recorded measurements of MIC MSSP 86001, one per entry
Tested on: MSSP (Methicillin-Susceptible Staphylococcus pseudintermedius)
assay details: MIC against selected strains of MSSP
Type: cell-based
Design: key: MIC in μM (first well with no visible growth)
experimental setup: strain 86001, Table 3
API doc: respond with a numeric literal and nothing else, no unit.

Completed entries (count: 4):
substance: 3 (GWCFRVCYRGICYRRCRD; Artificial Antimicrobial peptide) [compound 3]
MIC MSSP 86001: 0.8

substance: 6 (KWCFRVCRRGICYRRCRD; Artificial Antimicrobial peptide) [compound 6]
MIC MSSP 86001: 3.1

substance: 2 (RWCFRVCYRGICYRRCRD; Artificial antimicrobial peptide) [compound 2]
MIC MSSP 86001: 1.6

substance: 8 (KWCFRVCYRGACYRRCRD; Artificial Antimicrobial peptide) [compound 8]
MIC MSSP 86001: 1.6

Recorded MIC MSSP 86001 (substance 7 (KWCFRVCYRGVCYRRCRD; Artificial Antimicrobial peptide) [compound 7] ): 1.6

Recorded MIC MSSP 86001 (substance 1 (KWCFRVCYRGICYRRCRD; Antimicrobial peptide) [compound 1] ): 1.6

* * *

Recorded measurements of EC 25922, one per entry
Tested on: E. coli ATCC 25922
Assay type: cell-based
experimental setup: E. coli 25922, Table 6
Mention the unit after the number when you answer.

Completed entries (count: 4):
substance: 99 (KWCFFVCYRGICYRRCRD; Artificial Antimicrobial peptide) [compound 99]
experimental system: E. coli ATCC 25922
result: 1.6 µM

substance: 104 (KWCFRVCYFGICYRRCRD; Artificial Antimicrobial peptide) [compound 104]
experimental system: E. coli ATCC 25922
result: 3.1 µM

substance: 103 (KWCFRVCKRGICYRRCRD; Artificial Antimicrobial peptide) [compound 103]
experimental system: E. coli ATCC 25922
result: 6.2 µM

substance: 114 (KWCFRVCYRGICYRRCRR; Artificial Antimicrobial peptide) [compound 114]
experimental system: E. coli ATCC 25922
result: 1.6 µM

Recorded EC 25922 (substance 106 (KWCWRVCYRGICYRRCRD; Artificial Antimicrobial peptide) [compound 106] ): 3.1 µM

Recorded EC 25922 (substance 102 (KWCFRACYRGICYRRCRD; Artificial Antimicrobial peptide) [compound 102] ): 1.6 µM

Recorded EC 25922 (substance 112 (KWCFRVCYRGICYRRCKD; Artificial Antimicrobial peptide) [compound 112] ): 1.6 µM

Recorded EC 25922 (substance 100 (KWCFWVCYRGICYRRCRD; Artificial Antimicrobial peptide) [compound 100] ): 0.8 µM

Recorded EC 25922 (substance 105 (KWCFRVCYRGICYRRCRN; Artificial Antimicrobial peptide) [compound 105] ): 3.1 µM

Recorded EC 25922 (substance 113 (KWCFRVCYRGICYRRCAD; Artificial Antimicrobial peptide) [compound 113] ): 1.6 µM

Recorded EC 25922 (substance 107 (KWCFRVCWRGICYRRCRD; Artificial Antimicrobial peptide) [compound 107] ): 3.1 µM

* * *

Tested on: MSSP (Methicillin-Susceptible Staphylococcus pseudintermedius)
assay details: MIC against selected strains of MSSP
Assay type: cell-based
Design: unit not given beside the values
experimental setup: strain 72036, Table 5
measured quantity: Effect on MSSP 72036
API doc: respond with a numeric literal and nothing else, no unit.

Recorded Effect on MSSP 72036 (substance 106 (KWCWRVCYRGICYRRCRD; Artificial Antimicrobial peptide) [compound 106] ): 1.6

* * *

Recorded measurements of Effect on MSSP 84658, one per entry
Tested on: MSSP (Methicillin-Susceptible Staphylococcus pseudintermedius)
assay details: MIC against selected strains of MSSP
Format: cell-based
Set-up: unit: µM
experimental setup: strain 84658, Table 5
API doc: respond with a numeric literal and nothing else, no unit.

Completed entries (count: 2):
substance: 29 (PKWCFRVCYRGICYRRCRD; Artificial Antimicrobial peptide) [compound 29]
numeric value: 1.6
//
substance: 98 (KWCVRVCYRGICYRRCRD; Artificial Antimicrobial peptide) [compound 98]
numeric value: 1.6

Turning now to a further record.
Recorded Effect on MSSP 84658 (substance 117 (GWCFYVCYRGICYRRCRD; Artificial Antimicrobial peptide) [compound 117] ): 1.6

* * *

Test system: MSSP (Methicillin-Susceptible Staphylococcus pseudintermedius)
assay details: MIC against selected strains of MSSP
Type: cell-based
Set-up: unit: µM
experimental setup: strain 77378, Table 5
measured quantity: Effect on MSSP 77378
API doc: respond with a numeric literal and nothing else, no unit.

Completed entries (count: 6):
substance: 99 (KWCFFVCYRGICYRRCRD; Artificial Antimicrobial peptide) [compound 99]
Effect on MSSP 77378: 1.6
//
substance: 102 (KWCFRACYRGICYRRCRD; Artificial Antimicrobial peptide) [compound 102]
Effect on MSSP 77378: 0.8
//
substance: 112 (KWCFRVCYRGICYRRCKD; Artificial Antimicrobial peptide) [compound 112]
Effect on MSSP 77378: 0.8
//
substance: 114 (KWCFRVCYRGICYRRCRR; Artificial Antimicrobial peptide) [compound 114]
Effect on MSSP 77378: 1.6
//
substance: 116 (KWCFYVCYRGICYRRCND; Artificial Antimicrobial peptide) [compound 116]
Effect on MSSP 77378: 1.6
//
substance: 110 (KWCFRVCYRGYCYRRCRD; Artificial Antimicrobial peptide) [compound 110]
Effect on MSSP 77378: 1.6

Recorded Effect on MSSP 77378 (substance 98 (KWCVRVCYRGICYRRCRD; Artificial Antimicrobial peptide) [compound 98] ): 1.6

Recorded Effect on MSSP 77378 (substance 28 (PKWCFRVCYRGICYRRCR; Artificial Antimicrobial peptide) [compound 28] ): 1.6

Recorded Effect on MSSP 77378 (substance 109 (KWCFRVCYRRICYRRCRD; Artificial Antimicrobial peptide) [compound 109] ): 1.6

Recorded Effect on MSSP 77378 (substance 105 (KWCFRVCYRGICYRRCRN; Artificial Antimicrobial peptide) [compound 105] ): 0.8

Recorded Effect on MSSP 77378 (substance 108 (KWCFRVCYGGICYRRCRD; Artificial Antimicrobial peptide) [compound 108] ): 3.1

Recorded Effect on MSSP 77378 (substance 29 (PKWCFRVCYRGICYRRCRD; Artificial Antimicrobial peptide) [compound 29] ): 0.8

Recorded Effect on MSSP 77378 (substance 115 (GWCFRVCYRGICYRRCND; Artificial Antimicrobial peptide) [compound 115] ): 0.8

Recorded Effect on MSSP 77378 (substance 30 (PWCFRVCYRGICYRRCR; Artificial Antimicrobial peptide) [compound 30] ): 0.8

Recorded Effect on MSSP 77378 (substance 100 (KWCFWVCYRGICYRRCRD; Artificial Antimicrobial peptide) [compound 100] ): 3.1

* * *

Recorded measurements of MR 79882, one per entry
Test system: MRSP (Methicillin-Resistant Staphylococcus pseudintermedius)
assay details: MIC against selected strains of MRSP
Type: cell-based
Parameters: key: MIC in μM (visual, first well with no growth)
experimental setup: MRSP strain 79882, Table 6
Description: Peptides according to SEQ ID NOs as listed in Table 1 were prepared by a commercial manufacturer (CS Bio, Menlo Park, Calif.) using solid phase synthesis. Antimicrobial activity was assessed by determining the Minimal Inhibitory Concentration (MIC) against S. aureus and E. coli. Briefly, Microbroth MICs were performed using CLSI methodology (VET01-S2). […] The MIC was determined visually at the first well of no visible growth at the corresponding concentration. […]

substance: 105 (KWCFRVCYRGICYRRCRN; Artificial Antimicrobial peptide) [compound 105]
result: 0.8

substance: 99 (KWCFFVCYRGICYRRCRD; Artificial Antimicrobial peptide) [compound 99]
result: 1.6

Recorded MR 79882 (substance 113 (KWCFRVCYRGICYRRCAD; Artificial Antimicrobial peptide) [compound 113] ): 1.6

Recorded MR 79882 (substance 102 (KWCFRACYRGICYRRCRD; Artificial Antimicrobial peptide) [compound 102] ): 1.6

Recorded MR 79882 (substance 28 (PKWCFRVCYRGICYRRCR; Artificial Antimicrobial peptide) [compound 28] ): 0.8

* * *

Tested on: cRBC
Format: cell-based, canine
Experimental: SEQ ID NO: 1 was selected for further research. Toxicity of SEQ ID NO: 1 to eukaryotic blood cells was compared to that of tachyplesin (SEQ ID NO: 13). A standard, well referenced red blood cell hemolysis assay was employed against multiple species to test the lysis potential of the peptides. […] Percent hemolysis was measured by optical density at 405 nm and utilizing 1% TritonX100 as hundred percent effect (HPE) and phosphate buffer alone as zero percent effect (ZPE).
Recorded measurements of cRBC (50 μM), one per entry
API doc: respond with a numeric literal and nothing else, no unit.

substance: 107 (KWCFRVCWRGICYRRCRD; Artificial Antimicrobial peptide) [compound 107]
measured quantity: cRBC (50 μM)
numeric value: 101.8

Measured cRBC (50 μM) (cRBC), entry 99 (KWCFFVCYRGICYRRCRD; Artificial Antimicrobial peptide) [compound 99] : 100.0

Measured cRBC (50 μM) (cRBC), entry 10 (KWCFRVCYRGICYHRCRD; Artificial Antimicrobial peptide) [compound 10] : 101.1

Measured cRBC (50 μM) (cRBC), entry 114 (KWCFRVCYRGICYRRCRR; Artificial Antimicrobial peptide) [compound 114] : 97.9
